# system: Carbonic anhydrase 2 (Homo sapiens)
# method-notes: compounds binding carbonic anhydrase 2 – biochemical, small-molecule microarray, Alexa647-labelled CAII, profiling panel (AID 1122)
# measurement-setup: CAII-A647 binding fluorescence, higher = more signal
quantity-name: composite z-score
Write no unit; give the number alone.

Observe how each entry below is paired with its result.
molecule | composite z-score
CN(C)CCCCCCNC(=O)[C@@H]1C[C@@H]2C(=O)N3CCC[C@H]3C(=O)N2[C@@H]1c1cccc(OCCO)c1 | 0.591
COC(=O)[C@@]1(Cc2ccc(F)cc2)[C@H]2c3cc(C(=O)N4CCCC4)n(CCc4c[nH]c5ccccc45)c3C[C@H]2CN1C(=O)c1ccccc1 | 0.795

Now take the following molecule into account.
### Prompt # lookup: composite z-score of C=CCC(OC(C)=O)[C@@H]1[C@@H](N(Cc2ccc(-c3cccc(C(F)(F)F)c3)o2)C(=O)Cc2ccc(OC)cc2)c2cc(OCCCO)ccc2N1C(=O)c1ccc(-c2ccccc2)cc1 (stereo partly drawn)
### Response 0.251
